protocol description: Cytotoxicity against human BGC803 cells after 24 hrs by MTT assay
Type: functional, cell-based
applied conditions: BGC803, 24 h
property label: IC50

Given CC1(C)CC[C@]2(C(=O)O[C@@H]3O[C@H](CO[C@@H]4O[C@H](CO)[C@@H](O)[C@H](O)[C@H]4O[C@@H]4O[C@H](CO)[C@@H](O)[C@H](O)[C@H]4O)[C@@H](O)[C@H](O[C@@H]4O[C@H](CO)[C@@H](O)[C@H](O)[C@H]4O)[C@H]3O)CC[C@]3(C)C(=CC[C@@H]4[C@@]5(C)CC[C@H](O)[C@@](C)(C(=O)O)[C@@H]5CC[C@]43C)[C@@H]2C1 , state its recorded IC50.
5.3 µM

Find the recorded IC50 belonging to CC1(C)CC[C@]2(C(=O)O[C@@H]3O[C@H](CO[C@@H]4O[C@H](COC(=O)C[C@@](C)(O)CC(=O)O)[C@@H](O)[C@H](O)[C@H]4O[C@@H]4O[C@H](CO)[C@@H](O)[C@H](O)[C@H]4O)[C@@H](O)[C@H](O[C@@H]4O[C@H](CO)[C@@H](O)[C@H](O)[C@H]4O)[C@H]3O)[C@H](O)C[C@]3(C)C(=CC[C@@H]4[C@@]5(C)CC[C@H](O)[C@@](C)(C(=O)O)[C@@H]5CC[C@]43C)[C@@H]2C1 [DIANVERSICOSIDE B] and report it.
5.7 µM

Item under review: CC1(C)CC[C@]2(C(=O)O[C@@H]3O[C@H](CO[C@@H]4O[C@H](CO)[C@@H](O)[C@H](O)[C@H]4O[C@@H]4O[C@H](CO)[C@@H](O)[C@H](O)[C@H]4O)[C@@H](O)[C@H](O[C@@H]4O[C@H](CO)[C@@H](O)[C@H](O)[C@H]4O)[C@H]3O)CC[C@]3(C)C(=CC[C@@H]4[C@@]5(C)CC[C@H](O[C@@H]6OC[C@H](O)[C@H](O)[C@H]6O)[C@@](C)(C(=O)O)[C@@H]5CC[C@]43C)[C@@H]2C1 [DIANVERSICOSIDE G] . Reported IC50?
6.8 µM

* * *

For each of the molecules below, state its pIC50.
protocol description: Cytotoxicity against human EVC304 cells after 24 hrs by MTT assay
Type: cell-based
applied conditions: EVC304, 24 h
Reminder that pIC50 means the negative base-10 logarithm of the concentration expressed in mol/L.

Using the record for CC1(C)CC[C@]2(C(=O)O[C@@H]3O[C@H](CO[C@@H]4O[C@H](COC(=O)C[C@@](C)(O)CC(=O)O)[C@@H](O)[C@H](O)[C@H]4O[C@@H]4O[C@H](CO)[C@@H](O)[C@H](O)[C@H]4O)[C@@H](O)[C@H](O[C@@H]4O[C@H](CO)[C@@H](O)[C@H](O)[C@H]4O)[C@H]3O)[C@H](O)C[C@]3(C)C(=CC[C@@H]4[C@@]5(C)CC[C@H](O)[C@@](C)(C(=O)O)[C@@H]5CC[C@]43C)[C@@H]2C1 [DIANVERSICOSIDE B] , report its pIC50.
5.11

Param item = CC1(C)CC[C@]2(C(=O)O)CC[C@]3(C)C(=CC[C@@H]4[C@@]5(C)CC[C@H](O)[C@@](C)(C(=O)O[C@@H]6O[C@H](CO[C@@H]7O[C@H](CO)[C@@H](O)[C@H](O)[C@H]7O[C@@H]7O[C@H](CO)[C@@H](O)[C@H](O)[C@H]7O)[C@@H](O)[C@H](O[C@@H]7O[C@H](CO)[C@@H](O)[C@H](O)[C@H]7O)[C@H]6O)[C@@H]5CC[C@]43C)[C@@H]2C1 [VACCAROID C] ; retrieve measured pIC50.
5.06

GET /values?readout=pIC50&item= CC1(C)CC[C@]2(C(=O)O[C@@H]3O[C@H](CO[C@@H]4O[C@H](CO)[C@@H](O)[C@H](O)[C@H]4O[C@@H]4O[C@H](CO)[C@@H](O)[C@H](O)[C@H]4O)[C@@H](O)[C@H](O[C@@H]4O[C@H](CO)[C@@H](O)[C@H](O)[C@H]4O)[C@H]3O)CC[C@]3(C)C(=CC[C@@H]4[C@@]5(C)CC[C@H](O)[C@@](C)(C(=O)O)[C@@H]5CC[C@]43C)[C@@H]2C1 [VACCAROID A]
5.39

Dear colleague, I am looking for the recorded pIC50 of the following molecule: CC1(C)CC[C@]2(C(=O)O[C@@H]3O[C@H](CO[C@@H]4O[C@H](CO)[C@@H](O)[C@H](O)[C@H]4O[C@@H]4O[C@H](CO)[C@@H](O)[C@H](O)[C@H]4O)[C@@H](O)[C@H](O)[C@H]3O)[C@H](O)C[C@]3(C)C(=CC[C@@H]4[C@@]5(C)CC[C@H](O)[C@@](C)(C(=O)O[C@@H]6O[C@H](CO)[C@@H](O)[C@H](O)[C@H]6O)[C@@H]5CC[C@]43C)[C@@H]2C1 [DIANVERSICOSIDE F]
5.02

Look up pIC50: CC1(C)CC[C@]2(C(=O)O[C@@H]3O[C@H](CO[C@@H]4O[C@H](CO)[C@@H](O)[C@H](O)[C@H]4O[C@@H]4O[C@H](CO)[C@@H](O)[C@H](O)[C@H]4O)[C@@H](O)[C@H](O[C@@H]4O[C@H](CO)[C@@H](O)[C@H](O)[C@H]4O)[C@H]3O)CC[C@]3(C)C(=CC[C@@H]4[C@@]5(C)CC[C@H](O[C@@H]6OC[C@H](O)[C@H](O)[C@H]6O)[C@@](C)(C(=O)O)[C@@H]5CC[C@]43C)[C@@H]2C1 [DIANVERSICOSIDE G]
5.21
